Method Summary: In vivo biodistribution in mice
Set-up: species or system normal CD-1 male mice
Conditions Used: iv, 30 min

Molecule	bone to blood ratio
O=C([O-])CN(CCN(CC(=O)[O-])Cc1cc(CCC(=O)NC(P(=O)(O)O)P(=O)(O)O)ccc1[O-])Cc1cc(CCC(=O)NC2C(O)OC(CO)C(O)C2O)ccc1[O-].[68Ga+3] (centres unmarked) [[^68Ga]1b]	20
O=C([O-])CN1CCN(CC(=O)[O-])CCN(CC(=O)NCCNC(=O)CCc2ccc(O)c(CN(CCN(CC(=O)O)Cc3cc(CCC(=O)NC(P(=O)(O)O)P(=O)(O)O)ccc3O)CC(=O)O)c2)CCN(CC(=O)[O-])CC1.[177Lu+3] [[^177Lu]1h]	24
O=C([O-])CN(CCN(CC(=O)[O-])Cc1cc(CCC(=O)NC(P(=O)(O)O)P(=O)(O)O)ccc1[O-])Cc1cc(CCC(=O)NCC(=O)O)ccc1[O-].[68Ga+3] [[^68Ga]1c]	8
C[C@H](NC(=O)CCc1ccc([O-])c(CN(CCN(CC(=O)[O-])Cc2cc(CCC(=O)NC(P(=O)(O)O)P(=O)(O)O)ccc2[O-])CC(=O)[O-])c1)C(=O)O.[68Ga+3] [[^68Ga]1d]	29
O=C(O)CN1CCN(CC(=O)O)CCN(CC(=O)NC(P(=O)(O)O)P(=O)(O)O)CCN(CC(=O)O)CC1.[68Ga] [[^68Ga]BPAMD, reference compound]	10
[18F-].[Na+] [[^18F]NaF, reference compound]	38
O=C([O-])CN(CCN(CC(=O)[O-])Cc1cc(CCC(=O)NC(P(=O)(O)O)P(=O)(O)O)ccc1[O-])Cc1cc(CCC(=O)NC(P(=O)(O)O)P(=O)(O)O)ccc1[O-].[68Ga+3] [[^68Ga]2]	26
O=C([O-])CN(CCN(CC(=O)[O-])Cc1cc(CCC(=O)NC(P(=O)(O)O)P(=O)(O)O)ccc1[O-])Cc1cc(CCC(=O)NCCCNC(=O)CCc2ccc(O)c(CN(CCN(CC(=O)O)Cc3cc(CCC(=O)NC(P(=O)(O)O)P(=O)(O)O)ccc3O)CC(=O)O)c2)ccc1[O-].[68Ga+3] [[^68Ga]3]	4.8
O=C([O-])CN(CCN(CC(=O)[O-])Cc1cc(CCC(=O)NC(P(=O)(O)O)P(=O)(O)O)ccc1[O-])Cc1cc(CCC(=O)NCCCCCC(=O)NCCCC[C@H](NC(=O)N[C@@H](CCC(=O)O)C(=O)O)C(=O)O)ccc1[O-].[68Ga+3] [[^68Ga]1g]	29
O=C([O-])CN(CCN(CC(=O)[O-])Cc1cc(CCC(=O)N[C@@H](CC(=O)O)C(=O)O)ccc1[O-])Cc1cc(CCC(=O)NC(P(=O)(O)O)P(=O)(O)O)ccc1[O-].[68Ga+3] [[^68Ga]1e]	29
O=C([O-])CN(CCN(CC(=O)[O-])Cc1cc(CCC(=O)N[C@@H](CCC(=O)O)C(=O)O)ccc1[O-])Cc1cc(CCC(=O)NC(P(=O)(O)O)P(=O)(O)O)ccc1[O-].[68Ga+3] [[^68Ga]1f]	33
O=C([O-])CN(CCN(CC(=O)[O-])Cc1cc(CCC(=O)O)ccc1[O-])Cc1cc(CCC(=O)O)ccc1[O-].[68Ga+3] [[^68Ga]HBED-CC, reference compound]	0.3
O=C([O-])CN(CCN(CC(=O)[O-])Cc1cc(CCC(=O)NC(P(=O)(O)O)P(=O)(O)O)ccc1[O-])Cc1cc(CCC(=O)NCCNC(=O)CN2CCN(CC(=O)O)CCN(CC(=O)O)CCN(CC(=O)O)CC2)ccc1[O-].[68Ga+3] [[^68Ga]1h]	27
O=C([O-])CN(CCN(CC(=O)[O-])Cc1cc(CCC(=O)NC(P(=O)(O)O)P(=O)(O)O)ccc1[O-])Cc1cc(CCC(=O)O)ccc1[O-].[68Ga+3] [[^68Ga]1a]	36

====

Method Summary: In vivo biodistribution in mice
Parameters: species or system normal CD-1 male mice
Conditions Used: iv, 120 min post injection
Reported values of Biodistribution: Bone for individual entries
Measurement Label: Biodistribution: Bone (% dose/g)

Compound	Value Observed
O=C([O-])CN(CCN(CC(=O)[O-])Cc1cc(CCC(=O)NC(P(=O)(O)O)P(=O)(O)O)ccc1[O-])Cc1cc(CCC(=O)NCC(=O)O)ccc1[O-].[68Ga+3] [[^68Ga]1c]	16.1
O=C([O-])CN(CCN(CC(=O)[O-])Cc1cc(CCC(=O)NC(P(=O)(O)O)P(=O)(O)O)ccc1[O-])Cc1cc(CCC(=O)NCCNC(=O)CN2CCN(CC(=O)O)CCN(CC(=O)O)CCN(CC(=O)O)CC2)ccc1[O-].[68Ga+3] [[^68Ga]1h]	12.0
O=C([O-])CN(CCN(CC(=O)[O-])Cc1cc(CCC(=O)NC(P(=O)(O)O)P(=O)(O)O)ccc1[O-])Cc1cc(CCC(=O)NCCCNC(=O)CCc2ccc(O)c(CN(CCN(CC(=O)O)Cc3cc(CCC(=O)NC(P(=O)(O)O)P(=O)(O)O)ccc3O)CC(=O)O)c2)ccc1[O-].[68Ga+3] [[^68Ga]3]	10.6

====

Method Summary: In vivo biodistribution in mice
Parameters: species or system normal CD-1 male mice
Conditions Used: iv, 120 min post injection
Measurement Label: Biodistribution: Liver

Molecule	Value Observed
O=C([O-])CN(CCN(CC(=O)[O-])Cc1cc(CCC(=O)N[C@@H](CCC(=O)O)C(=O)O)ccc1[O-])Cc1cc(CCC(=O)NC(P(=O)(O)O)P(=O)(O)O)ccc1[O-].[68Ga+3] [[^68Ga]1f]	0.19 ± 0.01 % dose/g
O=C([O-])CN(CCN(CC(=O)[O-])Cc1cc(CCC(=O)NC(P(=O)(O)O)P(=O)(O)O)ccc1[O-])Cc1cc(CCC(=O)NCC(=O)O)ccc1[O-].[68Ga+3] [[^68Ga]1c]	1.99 ± 0.09 % dose/g
[18F-].[Na+] [[^18F]NaF, reference compound]	0.03 ± 0.01 % dose/g
O=C([O-])CN(CCN(CC(=O)[O-])Cc1cc(CCC(=O)NC(P(=O)(O)O)P(=O)(O)O)ccc1[O-])Cc1cc(CCC(=O)O)ccc1[O-].[68Ga+3] [[^68Ga]1a]	0.14 ± 0.02 % dose/g

====

Reported values of Biodistribution: Brain for individual entries
Method Summary: In vivo biodistribution in mice
Design: species or system normal CD-1 male mice
Conditions Used: iv, 30 min (0.5 hr) post injection
Measurement Label: Biodistribution: Brain (% dose/g)

Compound	Value Observed
O=C([O-])CN(CCN(CC(=O)[O-])Cc1cc(CCC(=O)NC(P(=O)(O)O)P(=O)(O)O)ccc1[O-])Cc1cc(CCC(=O)NC(P(=O)(O)O)P(=O)(O)O)ccc1[O-].[68Ga+3] [[^68Ga]2]	0.03
O=C([O-])CN(CCN(CC(=O)[O-])Cc1cc(CCC(=O)N[C@@H](CCC(=O)O)C(=O)O)ccc1[O-])Cc1cc(CCC(=O)NC(P(=O)(O)O)P(=O)(O)O)ccc1[O-].[68Ga+3] [[^68Ga]1f]	0.02
O=C([O-])CN1CCN(CC(=O)[O-])CCN(CC(=O)NCCNC(=O)CCc2ccc(O)c(CN(CCN(CC(=O)O)Cc3cc(CCC(=O)NC(P(=O)(O)O)P(=O)(O)O)ccc3O)CC(=O)O)c2)CCN(CC(=O)[O-])CC1.[177Lu+3] [[^177Lu]1h]	0.03
O=C([O-])CN(CCN(CC(=O)[O-])Cc1cc(CCC(=O)NC(P(=O)(O)O)P(=O)(O)O)ccc1[O-])Cc1cc(CCC(=O)NCCNC(=O)CN2CCN(CC(=O)O)CCN(CC(=O)O)CCN(CC(=O)O)CC2)ccc1[O-].[68Ga+3] [[^68Ga]1h]	0.02
[18F-].[Na+] [[^18F]NaF, reference compound]	0.10
O=C([O-])CN(CCN(CC(=O)[O-])Cc1cc(CCC(=O)NC(P(=O)(O)O)P(=O)(O)O)ccc1[O-])Cc1cc(CCC(=O)NC2C(O)OC(CO)C(O)C2O)ccc1[O-].[68Ga+3] (stereo not shown) [[^68Ga]1b]	0.03
O=C([O-])CN(CCN(CC(=O)[O-])Cc1cc(CCC(=O)N[C@@H](CC(=O)O)C(=O)O)ccc1[O-])Cc1cc(CCC(=O)NC(P(=O)(O)O)P(=O)(O)O)ccc1[O-].[68Ga+3] [[^68Ga]1e]	0.02

====

Method Summary: In vivo biodistribution in mice
Design: species or system normal CD-1 male mice
Conditions Used: iv, 2 min post injection
Measurement Label: Biodistribution: Brain (% dose/g)

Compound	Readout Unit	Value Observed
O=C([O-])CN(CCN(CC(=O)[O-])Cc1cc(CCC(=O)NC(P(=O)(O)O)P(=O)(O)O)ccc1[O-])Cc1cc(CCC(=O)NCCCNC(=O)CCc2ccc(O)c(CN(CCN(CC(=O)O)Cc3cc(CCC(=O)NC(P(=O)(O)O)P(=O)(O)O)ccc3O)CC(=O)O)c2)ccc1[O-].[68Ga+3] [[^68Ga]3]	% dose/g	0.28
O=C([O-])CN(CCN(CC(=O)[O-])Cc1cc(CCC(=O)NC(P(=O)(O)O)P(=O)(O)O)ccc1[O-])Cc1cc(CCC(=O)NCCNC(=O)CN2CCN(CC(=O)O)CCN(CC(=O)O)CCN(CC(=O)O)CC2)ccc1[O-].[68Ga+3] [[^68Ga]1h]	% dose/g	0.24

Reference source for all entries: patent US10253052B2
